- Assay System: T1, human CTLA-4 (amino acids M1-N223) on stably transfected VI-fibroblast cells (human, UniProt P16410 36-223)
- T1 construct: also called VI-fibroblast/hCTLA-4
- T1 sequence (P16410 36-223 limits assumed): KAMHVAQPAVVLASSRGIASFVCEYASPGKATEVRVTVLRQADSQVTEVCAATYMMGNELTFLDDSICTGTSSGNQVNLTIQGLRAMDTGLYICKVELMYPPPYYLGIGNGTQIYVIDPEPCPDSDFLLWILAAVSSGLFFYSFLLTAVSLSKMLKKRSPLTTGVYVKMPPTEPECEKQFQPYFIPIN
- Assay Procedure: ECL cell binding, VI-fibroblast/hCTLA-4 cells;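 also: antibodies bound to the cells on carbon electrode plates, detected via SULFO-TAG anti-IgG secondary (1 h, RT), electrochemiluminescence read as RLU over a concentration range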
Endpoint Label: ratio of RLU signal to parental VI-fibroblast at 0.6 nM Ab (ratio)
Give the number; ratio is assumed, so skip it.

Consider the reported ratio of RLU signal to parental VI-fibroblast at 0.6 nM Ab for these binders:
>  <Binder>
H1M20370N (antibody, mouse IgG1, V domains shown, hybridoma antibody, human variable domains, mouse IgG1 Fc (H1M)) VH: QVQLHESGPGLVKPSQTLSLTCSVSGGSISNGGYYWSWIRQHPGQGLEWIGYIYYIGNTYYNPSLESRVTMSIDTSKNQFSLKLSSVTAADTAIYYCARQEFVPGAEYFLHWGQGILVTVSS VL: DIRMTQSPSSLSASVGDRVTITCRASQTVNTFLNWYQQKPGKAPKLLIFGASSLQSGVPSRFSGSGSGTDFTLTISGLQPEDFAIYYCQQSYSVPPITFGQGTRLEIE

>  <Observed>
23

$$$$
>  <Binder>
H2M20379N (antibody, mouse IgG2, V domains shown, hybridoma antibody, human variable domains, mouse IgG2 Fc (H2M)) VH: QVQLVESGGGVVQPGRSLRLSCAASGITFSSYGMHWVRQAPGKGLEWVALTSYDGSKKYYSDSVKGRFTISRDNSKNTLYLQMNSLRPEDTAVYYCAKDKGGDDYYGMDVWGQGTTVTVSS VL: EIVLTQSPGTLSLSPGERATLSCRASQWISSSYLAWYQQKPGQAPRLLIYGAFSRAPGIPGRFSGSGSGTDFTLTISRLEPEDFAVYYCQQYGSSPYTFGQGTKLEIN

>  <Observed>
28

$$$$
>  <Binder>
H2M20387N (antibody, mouse IgG2, V domains shown, hybridoma antibody, human variable domains, mouse IgG2 Fc (H2M)) VH: QVQLVESGGGVVQPGRSLRLSCAASGFTFSSYGIHWVRQAPGKGLEWVAVIWYGGNNKYYADSVKGRFTISRDNSKNTLYLQMNSLRAEDTALYHCARSGNFGAFDIWGQGTMVTVSS VL: EIVLTQSPGTLSLSPGERATLSCRASQSVSSYLAWYQQKPGQAPRLLIYGASSRATGIPDRFSGSGSGTDFILTINRLEPEDFAVYYCQHYGNSPWTFGQGTKVEIK

>  <Observed>
3

$$$$
>  <Binder>
H2M20375N (antibody, mouse IgG2, V domains shown, hybridoma antibody, human variable domains, mouse IgG2 Fc (H2M)) VH: QLQLQESGPGLVKPSETLSFTCTVSGGSISSNYYYWGWVRQSPGKGLEWIGSIYHTGNAYDNPSLKSRVTISVDTSKNQFSLNLNSVTAADTAIYYCARHHSSSSWWYFDVWGRGTLVIVSS VL: EIVLTQSPDTLSLSPGERATLSCRASQTVSNSHLAWYQQKPGQAPRLLIYGTSSRATGIPDRFSGSGSGTDFSLTIIRLEPDDFAVYFCQQHESSPPTFGQGAKLEIK

>  <Observed>
18

$$$$

**Query** # input binder: H2M20368N (antibody, mouse IgG2, V domains shown, hybridoma antibody, human variable domains, mouse IgG2 Fc (H2M)) VH: QVQLQESGPGLVRPSQTLSLTCTVSGGSISNGGYYWTWIRQNPGKGLEWIGYIYYIGTTYYNPSLESRLSLSVDTSKNQFSLKLTSVTAADTAVYYCARSSLAVSEAFDIWGQGTMVTVSS VL: DIQMTQSPSSLSASVGDRFTITCRASQSIGSFLSWYQQKPGKAPKLLIYAASSLQSGVPSRFSGSGSGTDFTLTISSLQPEDFATYYCQQSYNTPPITFGQGTRLEIK ; wanted: its ratio of RLU signal to parental VI-fibroblast at 0.6 nM Ab
**Result** 25
